- targetOfAssay: Ribonucleotide reductase (Homo sapiens, UniProt P23921+Q7LG56)
- Sequence (P23921 whole entry, looked up): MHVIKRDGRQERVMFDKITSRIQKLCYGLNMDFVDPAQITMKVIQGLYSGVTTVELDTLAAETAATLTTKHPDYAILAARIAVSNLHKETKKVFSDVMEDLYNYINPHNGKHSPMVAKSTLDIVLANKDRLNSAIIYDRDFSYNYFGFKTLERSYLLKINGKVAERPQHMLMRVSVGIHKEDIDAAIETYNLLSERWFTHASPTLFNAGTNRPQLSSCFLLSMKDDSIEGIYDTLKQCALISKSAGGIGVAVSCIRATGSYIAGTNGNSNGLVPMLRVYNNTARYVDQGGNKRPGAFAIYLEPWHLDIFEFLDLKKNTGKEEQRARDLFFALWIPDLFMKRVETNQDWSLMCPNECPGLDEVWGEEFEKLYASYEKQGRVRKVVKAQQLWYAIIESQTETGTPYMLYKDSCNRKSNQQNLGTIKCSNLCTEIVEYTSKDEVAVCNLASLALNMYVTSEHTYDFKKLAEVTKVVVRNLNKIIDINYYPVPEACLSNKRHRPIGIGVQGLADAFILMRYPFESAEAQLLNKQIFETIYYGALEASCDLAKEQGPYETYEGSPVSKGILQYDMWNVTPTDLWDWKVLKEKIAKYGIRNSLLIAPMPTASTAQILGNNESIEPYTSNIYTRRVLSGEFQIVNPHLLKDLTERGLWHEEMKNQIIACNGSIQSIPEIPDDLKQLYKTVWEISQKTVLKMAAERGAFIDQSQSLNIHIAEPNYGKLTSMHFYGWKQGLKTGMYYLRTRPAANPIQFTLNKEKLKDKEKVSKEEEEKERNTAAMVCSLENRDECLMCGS
- Sequence (Q7LG56 whole entry, looked up): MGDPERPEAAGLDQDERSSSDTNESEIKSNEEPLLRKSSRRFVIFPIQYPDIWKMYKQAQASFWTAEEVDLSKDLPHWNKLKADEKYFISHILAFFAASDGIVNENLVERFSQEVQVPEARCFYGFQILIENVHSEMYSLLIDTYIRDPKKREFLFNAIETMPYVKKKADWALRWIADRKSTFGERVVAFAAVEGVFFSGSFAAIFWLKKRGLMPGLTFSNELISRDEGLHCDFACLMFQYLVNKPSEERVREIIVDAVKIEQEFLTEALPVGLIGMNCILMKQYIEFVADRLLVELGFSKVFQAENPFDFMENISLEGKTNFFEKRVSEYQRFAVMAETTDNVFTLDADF
- assayMethodText: Human RNR Inhibition Effect: The inhibitory activity against the ribonucleotide reduction reaction (hereinafter referred to as RNR reaction) of the test compound was determined by measuring the formation of deoxycytidine diphosphate (hereinafter referred to as dCDP) from cytidine diphosphate (hereinafter referred to as CDP) by the following method.Human M1 subunit and human M2 subunit (mutant …
measuredAttribute: IC50 (nM)

molecule: Cc1c(Br)ccc(F)c1[C@@H](C)[C@H](NS(=O)(=O)c1ccc(Cl)c2c1OCCC2=O)c1n[nH]c(=O)o1
resultValue: 90
//
molecule: Cc1c(Br)ccc(F)c1[C@@H](C)[C@H](NS(=O)(=O)c1ccc(C(F)(F)F)cc1C(N)=O)c1n[nH]c(=O)o1
resultValue: 200
//
molecule: COC(=O)c1cc(Cl)ccc1S(=O)(=O)N[C@H](c1n[nH]c(=O)o1)[C@H](C)c1c(F)ccc(C)c1C
resultValue: 410
//
molecule: COc1cc(Cl)ccc1S(=O)(=O)N[C@H](c1n[nH]c(=O)o1)[C@H](C)c1c(F)ccc(-c2cn[nH]c2)c1C
resultValue: 160
//
molecule: COc1ccc(-c2cc(S(=O)(=O)N[C@H](c3n[nH]c(=O)o3)[C@H](C)c3c(F)ccc(C)c3C)ccc2Cl)cc1
resultValue: 720
//
molecule: Cc1ccc(F)c([C@@H](C)[C@H](NS(=O)(=O)c2ccc(Cl)cc2C(C)O)c2n[nH]c(=O)o2)c1C (some centres not stated)
resultValue: 380
//
molecule: COc1cc(Cl)ccc1S(=O)(=O)N[C@H](c1n[nH]c(=O)o1)[C@H](C)c1c(F)ccc(-c2cncnc2)c1C
resultValue: 540

---

- targetOfAssay: Ribonucleotide reductase (Homo sapiens, UniProt P23921+Q7LG56)
- assayMethodText: Human RNR Inhibition Effect: The inhibitory activity against the ribonucleotide reduction reaction (hereinafter referred to as RNR reaction) of the test compound was determined by measuring the formation of deoxycytidine diphosphate (hereinafter referred to as dCDP) from cytidine diphosphate (hereinafter referred to as CDP) by the following method.Human M1 subunit and human M2 subunit (mutant …
For each record, check the reported IC50: if it is below 0.5 µM write rule met, else write rule not met.

compound: CC(=O)OC1(C(F)(F)F)CCOc2c1cccc2S(=O)(=O)N[C@H](c1n[nH]c(=O)o1)[C@H](C)c1c(F)ccc(C)c1C (stereo not given in full)
labelValue: rule met
--
compound: Cc1ccc(S(=O)(=O)N[C@H](c2n[nH]c(=O)o2)[C@H](C)c2c(F)ccc3ccccc23)c(C(N)=O)c1
labelValue: rule met
--
compound: C[C@H](c1c(F)ccc2ccccc12)[C@H](NS(=O)(=O)c1ccc(Br)cc1C(N)=O)c1n[nH]c(=O)o1
labelValue: rule met
--
compound: Cc1ccc(F)c([C@@H](C)[C@H](NS(=O)(=O)c2ccccc2C(N)=O)c2n[nH]c(=O)o2)c1C
labelValue: rule met
--
compound: Cc1ccc(F)c([C@@H](C)[C@H](NS(=O)(=O)c2ccc3[nH]c(=O)[nH]c3c2)c2n[nH]c(=O)o2)c1C
labelValue: rule not met
--
compound: Cc1ccc(F)c([C@@H](C)[C@H](NS(=O)(=O)c2ccc(Cl)cc2C(=O)NO)c2n[nH]c(=O)o2)c1C
labelValue: rule met
--
compound: Cc1ccc(F)c([C@@H](C)[C@H](NS(=O)(=O)c2cccc3[nH]ccc23)c2n[nH]c(=O)o2)c1C
labelValue: rule not met
--
compound: Cc1ccc(S(=O)(=O)N[C@H](c2n[nH]c(=O)o2)[C@H](C)c2c(F)ccc(C)c2C)cc1S(=O)(=O)N1CCCCC1
labelValue: rule met
--
compound: Cc1ccc(F)c([C@@H](C)[C@H](NS(=O)(=O)c2ccc(Br)c(C#N)c2)c2n[nH]c(=O)o2)c1C
labelValue: rule not met
--
compound: COc1c(S(=O)(=O)N[C@H](c2n[nH]c(=O)o2)[C@H](C)c2c(F)ccc(C)c2C)ncc(Cl)c1C(C)OC(C)=O (stereo not given in full)
labelValue: rule met
--
compound: Cc1ccc(F)c([C@@H](C)[C@H](NS(=O)(=O)c2ccc(Cl)cc2OCC(F)F)c2n[nH]c(=O)o2)c1C
labelValue: rule met
--
compound: COc1cc(Cl)ccc1S(=O)(=O)N[C@H](c1n[nH]c(=O)o1)[C@H](C)c1c(F)ccc(-c2cc(F)cc(F)c2)c1C
labelValue: rule not met
--
compound: CNC(=O)c1cc(Br)cnc1S(=O)(=O)N[C@H](c1n[nH]c(=O)o1)[C@H](C)c1c(F)ccc(C)c1C
labelValue: rule met

---

- targetOfAssay: Ribonucleotide reductase (Homo sapiens, UniProt P23921+Q7LG56)
- assayMethodText: Human RNR Inhibition Effect: The inhibitory activity against the ribonucleotide reduction reaction (hereinafter referred to as RNR reaction) of the test compound was determined by measuring the formation of deoxycytidine diphosphate (hereinafter referred to as dCDP) from cytidine diphosphate (hereinafter referred to as CDP) by the following method.Human M1 subunit and human M2 subunit (mutant …
# Lookup of reported IC50 keyed by entry

compound: CC(=O)c1cc(Cl)ccc1S(=O)(=O)N[C@H](c1n[nH]c(=O)o1)[C@H](C)c1c(F)ccc(C)c1C
targetOfAssay: Ribonucleotide reductase (Homo sapiens, UniProt P23921+Q7LG56)
IC50, nM: 270

compound: Cc1ccc(F)c([C@@H](C)[C@H](NS(=O)(=O)c2cc(C(C)(C)O)c(Cl)cc2C(N)=O)c2n[nH]c(=O)o2)c1C
targetOfAssay: Ribonucleotide reductase (Homo sapiens, UniProt P23921+Q7LG56)
IC50, nM: 60

compound: COc1ccc(-c2ccc(F)c([C@@H](C)[C@H](NS(=O)(=O)c3ccc(Cl)cc3OC)c3n[nH]c(=O)o3)c2C)cc1
targetOfAssay: Ribonucleotide reductase (Homo sapiens, UniProt P23921+Q7LG56)
IC50, nM: 300

compound: Cc1ccc(F)c([C@@H](C)[C@H](NS(=O)(=O)c2ccc(Br)cc2C(N)=O)c2n[nH]c(=O)o2)c1C
targetOfAssay: Ribonucleotide reductase (Homo sapiens, UniProt P23921+Q7LG56)
IC50, nM: 60

compound: COc1cc(Br)ccc1S(=O)(=O)N[C@H](c1n[nH]c(=O)o1)[C@H](C)c1cccc2c1CCC2
targetOfAssay: Ribonucleotide reductase (Homo sapiens, UniProt P23921+Q7LG56)
IC50, nM: 590

compound: Cc1ccc(S(=O)(=O)N[C@H](c2n[nH]c(=O)o2)[C@H](C)c2c(F)ccc(C)c2C)c(C(N)=O)c1
targetOfAssay: Ribonucleotide reductase (Homo sapiens, UniProt P23921+Q7LG56)
IC50, nM: 140

compound: C[C@H](c1cccc2c1CCC2)[C@H](NS(=O)(=O)c1ccc(Cl)c(C(C)(C)O)n1)c1n[nH]c(=O)o1
targetOfAssay: Ribonucleotide reductase (Homo sapiens, UniProt P23921+Q7LG56)
IC50, nM: 440

compound: COC(=O)c1cc(Cl)cnc1S(=O)(=O)N[C@H](c1n[nH]c(=O)o1)[C@H](C)c1c(F)ccc(C)c1C
targetOfAssay: Ribonucleotide reductase (Homo sapiens, UniProt P23921+Q7LG56)
IC50, nM: 340

compound: Cc1ccc(S(=O)(=O)N[C@H](c2n[nH]c(=O)o2)[C@H](C)c2c(F)ccc(C)c2C)cc1
targetOfAssay: Ribonucleotide reductase (Homo sapiens, UniProt P23921+Q7LG56)
IC50, nM: 410

compound: COc1cc(N)ccc1S(=O)(=O)N[C@H](c1n[nH]c(=O)o1)[C@H](C)c1cccc2c1CCC2
targetOfAssay: Ribonucleotide reductase (Homo sapiens, UniProt P23921+Q7LG56)
IC50, nM: 730

compound: COc1cc(Cl)ccc1S(=O)(=O)N[C@H](c1n[nH]c(=O)o1)[C@H](C)c1c(F)ccc(-c2ccc(Cl)cc2)c1C
targetOfAssay: Ribonucleotide reductase (Homo sapiens, UniProt P23921+Q7LG56)
IC50, nM: 490

compound: COc1cc(Cl)cnc1S(=O)(=O)N[C@H](c1n[nH]c(=O)o1)[C@H](C)c1c(F)ccc(C)c1C
targetOfAssay: Ribonucleotide reductase (Homo sapiens, UniProt P23921+Q7LG56)
IC50, nM: 150

compound: Cc1ccc(F)c([C@@H](C)[C@H](NS(=O)(=O)c2c(F)cc(Cl)cc2C(=O)O)c2n[nH]c(=O)o2)c1C
targetOfAssay: Ribonucleotide reductase (Homo sapiens, UniProt P23921+Q7LG56)
IC50, nM: 270

compound: CC(O)c1nc(S(=O)(=O)N[C@H](c2n[nH]c(=O)o2)[C@H](C)c2cccc3c2CCC3)ccc1Cl (stereo partly specified)
targetOfAssay: Ribonucleotide reductase (Homo sapiens, UniProt P23921+Q7LG56)
IC50, nM: 400

compound: CC(=O)N1CCOc2c(S(=O)(=O)N[C@H](c3n[nH]c(=O)o3)[C@H](C)c3cccc(C)c3C)ccc(Cl)c21
targetOfAssay: Ribonucleotide reductase (Homo sapiens, UniProt P23921+Q7LG56)
IC50, nM: 560

compound: Cc1ccc(F)c([C@@H](C)[C@H](NS(=O)(=O)c2ccc3c(c2)N(C)CCC3)c2n[nH]c(=O)o2)c1C
targetOfAssay: Ribonucleotide reductase (Homo sapiens, UniProt P23921+Q7LG56)
IC50, nM: 220
